# Test system: Hepatocyte
# protocol description: Inhibition of glucagon-induced glucose production in C57BL/6N mouse primary hepatocytes grown under gluconeogenic medium at 20 uM after 3 hrs by glucose assay reagent-based glucose oxidase method
# Format: functional, cell-based
Active and inactive are the calls of the source. No cut-off for these calls is given here.
Hi there, use one of these labels in your reply, thanks! YES = active, NO = inactive

Outcome logged for `CCCC[C@H](Oc1ncc(-c2ccccc2)cn1)c1ccc(C(=O)NCCC(=O)O)cc1` in this assay:
YES

Please let me know the test result on file for `CCCC[C@H](Oc1ncc(-c2ccc(C(C)(C)C)cc2)cn1)c1ccc(C(=O)NCCC(=O)O)cc1` .
NO

Please let me know the test result on file for `CCCC[C@@H](Oc1ncc(-c2ccccc2)cn1)c1ccc(C(=O)NCCC(=O)O)cc1` .
YES

Hey, what did the test say about `CCCC[C@@H](Oc1ncc(-c2ccc(C(C)(C)C)cc2)cn1)c1ccc(C(=O)NCCC(=O)O)cc1` ?
NO

###

# Test system: Hepatocyte
# protocol description: Cytotoxicity against C57BL/6N mouse primary hepatocytes assessed as cell viability at 20 uM after 24 hrs by CCK8 assay
# Format: cell-based
# run parameters: hepatocytes, 24 h, 20 µM
measured property: Activity

CCCC[C@H](Oc1ncc(-c2ccccc2)cn1)c1ccc(C(=O)NCCC(=O)O)cc1
Toxic
CCCC[C@@H](Oc1ncc(-c2ccc(C(C)(C)C)cc2)cn1)c1ccc(C(=O)NCCC(=O)O)cc1
Toxic
CCCC[C@H](Oc1ncc(-c2ccc(C(C)(C)C)cc2)cn1)c1ccc(C(=O)NCCC(=O)O)cc1
Toxic

###

# system name: Glucagon receptor (Homo sapiens, UniProt P47871)
# Sequence (P47871 whole entry): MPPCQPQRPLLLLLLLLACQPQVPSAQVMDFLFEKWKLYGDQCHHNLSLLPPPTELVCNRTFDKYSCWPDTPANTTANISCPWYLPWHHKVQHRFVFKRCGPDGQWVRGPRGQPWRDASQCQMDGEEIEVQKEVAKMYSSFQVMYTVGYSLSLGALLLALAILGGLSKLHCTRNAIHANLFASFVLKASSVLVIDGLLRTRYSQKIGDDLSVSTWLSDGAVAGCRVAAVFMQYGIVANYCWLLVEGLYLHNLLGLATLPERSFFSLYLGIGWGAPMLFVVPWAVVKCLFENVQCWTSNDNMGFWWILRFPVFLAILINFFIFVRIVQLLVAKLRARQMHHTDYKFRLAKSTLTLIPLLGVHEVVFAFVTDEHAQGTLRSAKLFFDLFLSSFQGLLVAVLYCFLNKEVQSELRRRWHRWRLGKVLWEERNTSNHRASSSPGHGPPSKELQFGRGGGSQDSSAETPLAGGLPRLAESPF
# protocol description: Antagonist activity at human glucagon receptor expressed in CHO-K1 GCGR Gs cells assessed as inhibition of glucagon-induced cAMP accumulation pre-incubated for 10 mins before glucagon and forskolin addition and further incubated for 30 mins by luminescence-based assay
# run parameters: in the assay text read “pre-incubated for 15 mins” for “pre-incubated for 10 mins”
Threshold check on IC50: strictly below 7 µM is Fulfilled; on or above 7 µM is Not fulfilled.

CCCC[C@H](Oc1ncc(-c2ccccc2)cn1)c1ccc(C(=O)NCCC(=O)O)cc1
Not fulfilled

Please indicate whether the reported IC50 of CCCCC(Oc1ncc(-c2ccc(C(C)(C)C)cc2)cn1)c1ccc(C(=O)NCCC(=O)O)cc1 (configuration not stated) is strictly below 7 µM.
Fulfilled

Say whether its IC50 is strictly beneath 7 µM. Entry: CCCCC(Oc1ncc(-c2ccccc2)cn1)c1ccc(C(=O)NCCC(=O)O)cc1 (configuration not stated)
Fulfilled

###

# system name: Glucagon receptor (Homo sapiens, UniProt P47871)
# protocol description: Antagonist activity at human glucagon receptor expressed in CHO-K1 GCGR Gs cells assessed as inhibition of glucagon-induced cAMP accumulation pre-incubated for 10 mins before glucagon and forskolin addition and further incubated for 30 mins by luminescence-based assay
# run parameters: in the assay text read “pre-incubated for 15 mins” for “pre-incubated for 10 mins”
Property: IC50; scope: individual molecules
Numeric answer only, unit µM assumed.

CCCCC(Oc1ncc(-c2cc(Cl)cc(Cl)c2)cn1)c1ccc(C(=O)NCCC(=O)O)cc1 (centres undefined)
6.9

Notebook: CCCCC(Oc1ncc(-c2ccc(Oc3ccccc3)cc2)cn1)c1ccc(C(=O)NCCC(=O)O)cc1 (centres undefined) , IC50 read as 8.2

Note to self: IC50 recorded for `CCCC[C@@H](Oc1ncc(-c2ccccc2)cn1)c1ccc(C(=O)NCCC(=O)O)cc1` was 9.3

The value of IC50 measured for the molecule CCCCC(Oc1ncc(-c2ccc(CC)cc2)cn1)c1ccc(C(=O)NCCC(=O)O)cc1 (centres undefined) turned out to be 17.7
